// reported AUC per item
Experiment: Mouse pharmacokinetics, male and female, cassette dosing
Type: in vivo, mice (C57BL/6J)
Details: C57BL/6J, mouse, in vivo; male mice; 0 to 24 h
measure name: AUC (µg·h/mL)

> print(dat)
                           molecular.string  recorded.number
1  [2H]C([2H])([2H])Oc1cccc(-c2cc(F)c(NC(=O)C3=C(C(=O)NS(N)(=O)=O)CCC3)c(F)c2)c1             3.07
2  [2H]C([2H])([2H])Oc1cccc(-c2cc(F)c(NC(=O)C3=C(C(=O)NOC)CCC3)c(F)c2)c1             1.78
3  CS(=O)(=O)NC(=O)C1=C(C(=O)Nc2c(F)c(F)c(-c3cccc(OC(F)(F)F)c3)c(F)c2F)CCC1              3.2

---

Test system: SARS-CoV-2 reporter virus d6-YFP (WT)
Test: microbe, parasite or virus in culture
Assay type: cell-based
Details: Severe acute respiratory syndrome coronavirus 2, Caco-2
pEC50: −log10 of the molar value.
measure name: pEC50

> print(dat)
                                   compound                         assayed.system  recorded.number
1  [2H]C([2H])([2H])Oc1cccc(-c2cc(F)c(NC(=O)c3ccsc3C(=O)NOC)c(F)c2)c1 [Example 9]  SARS-CoV-2 reporter virus d6-YFP (WT)             7.14

---

Assay: in vitro
Type: cell-based
Details: human
measure name: CC50 at 2 days (µM)

> print(dat)
                           molecular.string  recorded.number
1  [2H]C([2H])([2H])Oc1cccc(-c2cc(F)c(NC(=O)c3ccsc3C(=O)NOC)c(F)c2)c1             45.3

---

Assay: A-B and B-A permeability (Caco-2, pH 7.4/7.4)
Type: in vitro ADME, human
Details: human, Caco-2, Caco-2, 10 μM, A-B direction; read-out: recovery (A-B)
measure name: recovery at 10 μM (%)

> print(dat)
                           molecular.string  recorded.number
1  [2H]C([2H])([2H])Oc1cccc(-c2cc(F)c(NC(=O)C3=C(C(=O)NOC)CCC3)c(F)c2)c1               60

---

Assay: Rat pharmacokinetics, oral cassette dosing
Parameters: species or system Sprague Dawley rats
Conditions: Sprague Dawley, in vivo, female rats, oral cassette, 0 to 8 h
measure name: AUC(0-t) (µM·h)

> print(dat)
                           molecular.string  measure.name  recorded.number
1  CONC(=O)C1=C(C(=O)Nc2c(F)c(F)c(-c3cccc(OC)c3)c(F)c2F)COC1      AUC(0-t)               91
2  [2H]C([2H])([2H])Oc1cccc(-c2c(F)c(F)c(NC(=O)C3=C(C(=O)NOC)COC3)c(F)c2F)c1      AUC(0-t)              125
3  [2H]C([2H])([2H])ONC(=O)C1=C(C(=O)Nc2c(F)c(F)c(-c3cccc(OC([2H])([2H])[2H])c3)c(F)c2F)COC1      AUC(0-t)              113

---

# human URAT1 uptake transporter stimulation @ 10 μM per record follows
Target: human URAT1 uptake transporter (Homo sapiens (Human), UniProt Q96S37)
Sequence (Q96S37 whole entry): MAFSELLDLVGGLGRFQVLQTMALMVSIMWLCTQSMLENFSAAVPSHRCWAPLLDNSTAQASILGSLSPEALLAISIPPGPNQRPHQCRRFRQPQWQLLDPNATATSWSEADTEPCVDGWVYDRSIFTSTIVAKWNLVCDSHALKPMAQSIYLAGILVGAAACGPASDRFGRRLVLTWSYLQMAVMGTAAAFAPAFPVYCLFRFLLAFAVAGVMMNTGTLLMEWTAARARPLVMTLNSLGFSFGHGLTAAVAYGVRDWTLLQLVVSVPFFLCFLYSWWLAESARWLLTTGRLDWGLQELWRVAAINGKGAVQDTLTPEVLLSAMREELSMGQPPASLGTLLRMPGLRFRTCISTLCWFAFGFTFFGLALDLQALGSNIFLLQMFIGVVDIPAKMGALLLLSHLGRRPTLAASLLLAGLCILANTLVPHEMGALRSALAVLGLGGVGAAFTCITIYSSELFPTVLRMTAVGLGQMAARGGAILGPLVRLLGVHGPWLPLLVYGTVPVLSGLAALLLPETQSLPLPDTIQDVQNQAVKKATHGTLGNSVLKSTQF
Assay: Human URAT1 uptake transporter assay (MDCKII-URAT1-LV, SOLVO)
Assay type: cell-based
Conditions: 10 μM compound, 20 μM uric acid probe substrate
measure name: human URAT1 uptake transporter stimulation @ 10 μM (%)

> print(dat)
                                   molecule  endpoint.unit  value.prefix  recorded.number
1  [2H]C([2H])([2H])Oc1cccc(-c2cc(F)c(NC(=O)C3=C(C(=O)NS(C)(=O)=O)CCC3)c(F)c2)c1              %             <               20
2  [2H]C([2H])([2H])Oc1cccc(-c2cc(F)c(NC(=O)C3=C(C(=O)NOC)CCC3)c(F)c2)c1 [Comparative Example C1, reference compound]              %             =              173
3  NS(=O)(=O)NC(=O)C1=C(C(=O)Nc2c(F)c(F)c(-c3cccc(OC(F)(F)F)c3)c(F)c2F)CCC1              %             =               72
4  CS(=O)(=O)NC(=O)C1=C(C(=O)Nc2c(F)c(F)c(-c3cccc(OC(F)(F)F)c3)c(F)c2F)CCC1              %             =               28
5  O=C(Nc1c(F)c(F)c(-c2cccc(OC(F)(F)F)c2)c(F)c1F)C1=C(c2nn[nH]n2)CCC1              %             <               20
6  [2H]C([2H])([2H])Oc1cccc(-c2cc(F)c(NC(=O)C3=C(C(=O)NOC)CCC3)c(F)c2)c1 [Example 4]              %             =               26
7  [2H]C([2H])([2H])Oc1cccc(-c2cc(F)c(NC(=O)C3=C(C(=O)NS(N)(=O)=O)CCC3)c(F)c2)c1              %             =               22

---

Assay: Partition coefficient log D (n-octanol/PBS at pH 7.4)
Assay type: physicochemical
Conditions: n-octanol/PBS at pH 7.4; read-out: logD
Listing of entries alongside the reported logD.
measure name: logD

> print(dat)
                           molecular.string  measure.name  result
1  [2H]C([2H])([2H])Oc1cccc(-c2cc(F)c(NC(=O)C3=C(C(=O)NS(N)(=O)=O)CCC3)c(F)c2)c1          logD     0.5
2  [2H]C([2H])([2H])Oc1cccc(-c2cc(F)c(NC(=O)C3=C(C(=O)NS(C)(=O)=O)CCC3)c(F)c2)c1          logD     0.9

---

Listing of entries alongside the reported IC50.
Molecular target: N-terminally truncated recombinant hDHODH enzyme (Homo sapiens, UniProt Q02127)
Sequence (Q02127 whole entry, looked up, the tested form may be a part): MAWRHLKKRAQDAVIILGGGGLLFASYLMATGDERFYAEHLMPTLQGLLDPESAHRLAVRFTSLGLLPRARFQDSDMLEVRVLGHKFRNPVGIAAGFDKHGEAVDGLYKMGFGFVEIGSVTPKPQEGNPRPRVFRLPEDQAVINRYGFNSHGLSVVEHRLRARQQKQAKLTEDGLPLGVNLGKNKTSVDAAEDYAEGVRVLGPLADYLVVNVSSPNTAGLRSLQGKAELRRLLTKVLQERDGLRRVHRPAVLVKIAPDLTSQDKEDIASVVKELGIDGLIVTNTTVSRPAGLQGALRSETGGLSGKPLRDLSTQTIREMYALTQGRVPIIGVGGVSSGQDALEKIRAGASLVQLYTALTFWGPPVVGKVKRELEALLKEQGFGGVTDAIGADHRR
Assay: biochemical
Assay type: biochemical
Conditions: human DHODH assay; read-out: IC50 range
measure name: IC50

> print(dat)
                                    compound  measure.name      result
 1  [2H]C([2H])([2H])ONC(=O)c1sccc1C(=O)Nc1c(F)c(F)c(-c2cccc(OC([2H])([2H])[2H])c2)c(F)c1F          IC50    < 100 nM
 2  CONC(=O)C1=C(C(=O)Nc2c(F)c(F)c(-c3cccc(OC)c3)c(F)c2F)COC1          IC50    < 100 nM
 3  CS(=O)(=O)NC(=O)C1=C(C(=O)Nc2c(F)c(F)c(-c3cccc(OC(F)(F)F)c3)c(F)c2F)CCC1          IC50    < 100 nM
 4  [2H]C([2H])([2H])Oc1cccc(-c2cc(F)c(NC(=O)C3=C(C(=O)NS(=O)(=O)C4(C)CC4)CCC3)c(F)c2)c1          IC50  > 10000 nM
 5  [2H]C([2H])([2H])Oc1cccc(-c2cc(F)c(NC(=O)C3=C(C(=O)NS(C)(=N)=O)CCC3)c(F)c2)c1 (stereo not drawn)          IC50    < 100 nM
 6  [2H]C([2H])([2H])Oc1cccc(-c2cc(F)c(NC(=O)c3ccsc3C(=O)NOCCO)c(F)c2)c1          IC50    < 100 nM
 7  [2H]C([2H])([2H])ONC(=O)C1=C(C(=O)Nc2c(F)c(F)c(-c3ccccc3OC([2H])([2H])[2H])c(F)c2F)COC1          IC50    < 100 nM
 8  [2H]C([2H])([2H])Oc1ccccc1-c1c(F)c(F)c(NC(=O)C2=C(C(=O)NS(C)(=O)=O)CCC2)c(F)c1F          IC50    < 100 nM
 9  [2H]C([2H])([2H])ONC(=O)C1=C(C(=O)Nc2c(F)c(F)c(-c3cccc(OC([2H])(C([2H])([2H])[2H])C([2H])([2H])[2H])c3)c(F)c2F)COC1          IC50    < 100 nM
10  [2H]C([2H])([2H])Oc1cccc(-c2ccc(NC(=O)C3=C(C(=O)NOC)CCC3)c3c2CCC3)c1          IC50  > 10000 nM
11  [2H]C([2H])([2H])ONC(=O)C1=C(C(=O)Nc2c(F)c(F)c(-c3cccc(OC([2H])([2H])[2H])c3)c(F)c2F)CCC1          IC50    < 100 nM
12  [2H]C([2H])([2H])Oc1cccc(-c2c(F)c(F)c(NC(=O)c3ccoc3C(=O)NOC)c(F)c2F)c1          IC50    < 100 nM
13  [2H]C([2H])([2H])Oc1cccc(-c2ccc(NC(=O)C3=C(C(=O)NOC)CCC3)n3ccnc23)c1          IC50  > 10000 nM
14  [2H]C([2H])([2H])ONC(=O)c1cscc1C(=O)Nc1c(F)c(F)c(-c2ccccc2OC([2H])([2H])[2H])c(F)c1F          IC50    < 100 nM
15  [2H]C([2H])([2H])Oc1ccccc1-c1c(F)c(F)c(NC(=O)C2=C(C(=O)NS(N)(=O)=O)CCC2)c(F)c1F          IC50    < 100 nM
16  [2H]C([2H])([2H])Oc1cccc(-c2cc(F)c(N(CCO)C(=O)C3=C(C(=O)NOC)CCC3)c(F)c2)c1          IC50  > 10000 nM
17  [2H]C([2H])([2H])Oc1cccc(-c2c(F)c(F)c(NC(=O)c3sc(C)cc3C(=O)NOC)c(F)c2F)c1          IC50    < 100 nM
18  [2H]C([2H])([2H])Oc1cccc(-c2cc(F)c(NC(=O)C3=C(C(=O)NS(=O)(=O)N(C)C)CCC3)c(F)c2)c1          IC50  > 10000 nM
19  [2H]c1c([2H])c([2H])c(-c2c(F)c(F)c(NC(=O)C3=C(C(=O)NOC([2H])([2H])[2H])COC3)c(F)c2F)c([2H])c1[2H]          IC50    < 100 nM
20  [2H]C([2H])([2H])Oc1cccc(C23CCC(NC(=O)C4=C(C(=O)NOC)CCC4)(CC2)CC3)c1          IC50  > 10000 nM
21  [2H]C([2H])([2H])Oc1ccccc1-c1c(F)c(F)c(NC(=O)C2=C(C(=O)NOC)COC2)c(F)c1F          IC50    < 100 nM
22  [2H]C([2H])([2H])Oc1cccc(-c2c(F)c(F)c(NC(=O)C3=C(C(=O)NOCCO)CC(F)(F)C3)c(F)c2F)c1          IC50    < 100 nM
23  [2H]C([2H])([2H])Oc1cccc(-c2c(F)c(F)c(NC(=O)C3=C(C(=O)NS(N)(=O)=O)CC(F)(F)C3)c(F)c2F)c1          IC50    < 100 nM
24  [2H]C([2H])([2H])Oc1cccc(-c2ccc(NC(=O)C3=C(C(=O)NOC)CCC3)c3ccccc23)c1          IC50  > 10000 nM
25  [2H]C([2H])([2H])Oc1cccc(-c2cc(F)c(NC(=O)C3=C(C(=O)NOC)CC(F)(F)C3)c(F)c2)c1          IC50    < 100 nM
26  [2H]C([2H])([2H])Oc1cccc(-c2c(F)c(F)c(NC(=O)C3=C(C(=O)NOC)CSC3)c(F)c2F)c1          IC50    < 100 nM
27  [2H]C([2H])([2H])Oc1ccccc1-c1c(F)c(F)c(NC(=O)C2=C(C(=O)NOC)CCC2)c(F)c1F          IC50    < 100 nM
